# system: T1, recombinant biotinylated CD71 extracellular domain (Sino Biologics) with an N-terminal 6His tag (human, UniProt P02786 89-760, biotinylated (sites not given))
# T1 construct: extracellular domain; also called hCD71; huCD71
# T1 sequence (P02786 other isoform, or with tags, fused parts or gaps): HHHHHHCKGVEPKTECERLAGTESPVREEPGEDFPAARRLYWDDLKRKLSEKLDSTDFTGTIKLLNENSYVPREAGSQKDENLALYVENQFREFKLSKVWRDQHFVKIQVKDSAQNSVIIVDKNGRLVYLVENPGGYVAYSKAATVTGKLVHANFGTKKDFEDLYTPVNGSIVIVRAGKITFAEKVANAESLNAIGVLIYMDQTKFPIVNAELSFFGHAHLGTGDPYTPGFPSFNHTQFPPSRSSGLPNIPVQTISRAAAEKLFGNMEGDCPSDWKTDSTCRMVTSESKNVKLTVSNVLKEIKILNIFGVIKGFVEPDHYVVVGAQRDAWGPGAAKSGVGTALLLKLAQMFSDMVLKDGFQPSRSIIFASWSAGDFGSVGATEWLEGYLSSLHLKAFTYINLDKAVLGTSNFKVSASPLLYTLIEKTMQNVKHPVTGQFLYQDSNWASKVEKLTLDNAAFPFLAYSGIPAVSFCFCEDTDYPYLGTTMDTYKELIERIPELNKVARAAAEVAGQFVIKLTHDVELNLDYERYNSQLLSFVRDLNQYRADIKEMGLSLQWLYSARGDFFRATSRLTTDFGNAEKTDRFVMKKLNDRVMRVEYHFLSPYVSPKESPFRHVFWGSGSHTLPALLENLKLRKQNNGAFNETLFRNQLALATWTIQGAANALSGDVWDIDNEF
# assay details: screening ELISA
quantity measured: hCD71

Query string: # query: hCD71 of entry SEQ ID NO 172 (designed binder, FN3 domain) MLPAPKNLVVSRVTEDSARLSWTAPDAAFDSFPIEYDEWWALGEAITLIVPASERSYDLTGLKPGTEYVVKIHGVKGGQRSYPLIAFFTT
Result string: 4.31e+06

[A] SEQ ID NO 114 (designed binder, FN3 domain) MLPAPKNLVVSRVTEDSARLSWTAPDAAFDSFAIEYWEAVGSGEAIVLTVPGSERSYDLTGLKPGTEYHVYIYGVKGGYLSLPLSAIFTT
[B] SEQ ID NO 137 (designed binder, FN3 domain) MLPAPKNLVVSRVTEDSARLSWTAPDAAFDSFEIEYDEPSVAGEAIVLTVPGSERSYDLTGLKPGTEYRVFIWGVKGGNQSWPLSAIFTT
Query string: Out of A and B , name the one with the higher hCD71. # answer = label of selected item
Result string: A
(A: 3.27e+06, B: 484000)
